B1: library; a variant is named by its letters at N, in order (parent)
chain: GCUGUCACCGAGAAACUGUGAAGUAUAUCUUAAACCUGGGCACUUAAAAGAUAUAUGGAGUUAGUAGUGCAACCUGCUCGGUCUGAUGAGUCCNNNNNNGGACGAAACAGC

Variants of: B1
Assay: FACS-Seq fitted mean relative fluorescence mCherry/BFP without ligand (log10 relative fluorescence); HEK293T; ligand: cyclic di-GMP (c-di-GMP-II aptamer); higher = higher reporter protein expression
Conditions: ligand present: no

Variant annotation: UGUGAU
FACS-Seq fitted mean (log10): -0.736
//
Variant annotation: ACAUAG
FACS-Seq fitted mean (log10): -0.486
//
Variant annotation: GCUGCA
FACS-Seq fitted mean (log10): 0.156
//
Variant annotation: ACAAUC
FACS-Seq fitted mean (log10): -0.873
//
Variant annotation: CCAUAA
FACS-Seq fitted mean (log10): -0.533
//
Variant annotation: ACGCGG
FACS-Seq fitted mean (log10): -0.429
